Reported MBC is given for each of the following molecules.
- Tested on: P. aeruginosa (ATCC 9027)
- PROCEDURE_DETAILS: Antimicrobial susceptibility assay (MIC/MBC)
- Assay type: cell-based, Pseudomonas aeruginosa
- Protocol: Six bacteria were tested in this experiment to detect the antimicrobial effects of crabrolin and its derivatives, including S. aureus (NCTC 10788), MRSA (NCTC 12493), E. coli (ATCC 8739), K. pneumoniae (ATCC 43816), E. faecium (NTCC-12697), and P. aeruginosa (ATCC 9027). […] After culturing, the absorbance of each well in the 96-well plate was analyzed at 550 nm using a Synergy HT plate reader (BioliseBioTek, Winooski, VT, USA). […]
Residues, ends and D or L forms follow the SMILES beside them.
Number in µM, nothing else.

[
  {
    "MOLECULE": "CC[C@H](C)[C@H](NC(=O)[C@H](CCCNC(=N)N)NC(=O)[C@@H]1CCCN1C(=O)[C@H](CC(C)C)NC(=O)[C@@H](N)CCCNC(=N)N)C(=O)N[C@@H](CC(C)C)C(=O)N[C@@H](CCCNC(=N)N)C(=O)N[C@@H](CCCCN)C(=O)N[C@H](C(=O)N[C@H](C(=O)N[C@@H](CCCNC(=N)N)C(=O)N[C@@H](C)C(=O)N[C@@H](CC(C)C)C(N)=O)C(C)C)[C@@H](C)CC [Crabrolin-FR, RLPRILRKIVRAL-NH2] (H-RLPRILRKIVRAL-NH2)",
    "MBC (µM)": 16
  }
]

Turning to the following molecule.
molecule CC[C@H](C)[C@H](NC(=O)[C@H](CC(C)C)NC(=O)[C@@H]1CCCN1C(=O)[C@H](CC(C)C)NC(=O)[C@@H](N)Cc1ccccc1)C(=O)N[C@@H](CC(C)C)C(=O)N[C@@H](CCCNC(=N)N)C(=O)N[C@@H](CCCCN)C(=O)N[C@H](C(=O)N[C@H](C(=O)N[C@H](C(=O)N[C@@H](C)C(=O)N[C@@H](CC(C)C)C(N)=O)[C@@H](C)O)C(C)C)[C@@H](C)CC [Crabrolin, FLPLILRKIVTAL-NH2] (H-FLPLILRKIVTAL-NH2) , MBC observed: 256

---

Reported MBC is given for each of the following compounds.
- Test system: E. faecium (NTCC 12697)
- PROCEDURE_DETAILS: Antimicrobial susceptibility assay (MIC/MBC)
- Type: cell-based, Enterococcus faecium
Residues, ends and D or L forms follow the SMILES beside them.
Number in µM, nothing else.

[
  {
    "COMPOUND": "CC[C@H](C)[C@H](NC(=O)[C@H](CCCNC(=N)N)NC(=O)[C@@H]1CCCN1C(=O)[C@H](CC(C)C)NC(=O)[C@@H](N)CCCNC(=N)N)C(=O)N[C@@H](CC(C)C)C(=O)N[C@@H](CCCNC(=N)N)C(=O)N[C@@H](CCCCN)C(=O)N[C@H](C(=O)N[C@H](C(=O)N[C@@H](CCCNC(=N)N)C(=O)N[C@@H](C)C(=O)N[C@@H](CC(C)C)C(N)=O)C(C)C)[C@@H](C)CC [Crabrolin-FR, RLPRILRKIVRAL-NH2] (H-RLPRILRKIVRAL-NH2)",
    "MBC / µM": 16
  }
]

compound CC[C@H](C)[C@H](NC(=O)[C@H](CCCNC(=N)N)NC(=O)[C@H](CCCNC(=N)N)NC(=O)[C@H](CC(C)C)NC(=O)[C@@H](N)CCCNC(=N)N)C(=O)N[C@@H](CC(C)C)C(=O)N[C@@H](CCCNC(=N)N)C(=O)N[C@@H](CCCCN)C(=O)N[C@H](C(=O)N[C@H](C(=O)N[C@@H](CCCNC(=N)N)C(=O)N[C@@H](CCCNC(=N)N)C(=O)N[C@@H](CC(C)C)C(N)=O)C(C)C)[C@@H](C)CC [Crabrolin-PR, RLRRILRKIVRRL-NH2] (H-RLRRILRKIVRRL-NH2) , MBC observed: 16

compound CC[C@H](C)[C@H](NC(=O)[C@H](CC(C)C)NC(=O)[C@@H]1CCCN1C(=O)[C@H](CC(C)C)NC(=O)[C@@H](N)Cc1ccccc1)C(=O)N[C@@H](CC(C)C)C(=O)N[C@@H](CCCNC(=N)N)C(=O)N[C@@H](CCCCN)C(=O)N[C@H](C(=O)N[C@H](C(=O)N[C@H](C(=O)N[C@@H](C)C(=O)N[C@@H](CC(C)C)C(N)=O)[C@@H](C)O)C(C)C)[C@@H](C)CC [Crabrolin, FLPLILRKIVTAL-NH2] (H-FLPLILRKIVTAL-NH2) , MBC observed: 64

compound CC[C@H](C)[C@H](NC(=O)[C@H](CCCNC(=N)N)NC(=O)[C@@H]1CCCN1C(=O)[C@H](CC(C)C)NC(=O)[C@@H](N)Cc1ccccc1)C(=O)N[C@@H](CC(C)C)C(=O)N[C@@H](CCCNC(=N)N)C(=O)N[C@@H](CCCCN)C(=O)N[C@H](C(=O)N[C@H](C(=O)N[C@H](C(=O)N[C@@H](C)C(=O)N[C@@H](CC(C)C)C(N)=O)[C@@H](C)O)C(C)C)[C@@H](C)CC [Crabrolin-4R, FLPRILRKIVTAL-NH2] (H-FLPRILRKIVTAL-NH2) , MBC observed: 32

compound CC[C@H](C)[C@H](NC(=O)[C@H](CCCNC(=N)N)NC(=O)[C@@H]1CCCN1C(=O)[C@H](CC(C)C)NC(=O)[C@@H](N)CCCNC(=N)N)C(=O)N[C@@H](CC(C)C)C(=O)N[C@@H](CCCNC(=N)N)C(=O)N[C@@H](CCCCN)C(=O)N[C@H](C(=O)N[C@H](C(=O)N[C@@H](CCCNC(=N)N)C(=O)N[C@@H](CCCNC(=N)N)C(=O)N[C@@H](CC(C)C)C(N)=O)C(C)C)[C@@H](C)CC [Crabrolin-AR, RLPRILRKIVRRL-NH2] (H-RLPRILRKIVRRL-NH2) , MBC observed: 32

---

- System: P. aeruginosa (ATCC 9027) biofilm
- Format: cell-based, Pseudomonas aeruginosa
- RECORDED_CONDITIONS: eradication rate greater than 99.9%
Residues, ends and D or L forms follow the SMILES beside them.
MEASURED_ATTRIBUTE: MBEC (µM)
Number in µM, nothing else.

The reported MBEC value, P. aeruginosa (ATCC 9027) biofilm, for CC[C@H](C)[C@H](NC(=O)[C@H](CCCNC(=N)N)NC(=O)[C@@H]1CCCN1C(=O)[C@H](CC(C)C)NC(=O)[C@@H](N)Cc1ccccc1)C(=O)N[C@@H](CC(C)C)C(=O)N[C@@H](CCCNC(=N)N)C(=O)N[C@@H](CCCCN)C(=O)N[C@H](C(=O)N[C@H](C(=O)N[C@H](C(=O)N[C@@H](C)C(=O)N[C@@H](CC(C)C)C(N)=O)[C@@H](C)O)C(C)C)[C@@H](C)CC [Crabrolin-4R, FLPRILRKIVTAL-NH2] (H-FLPRILRKIVTAL-NH2) reads 256

---

- Tested on: human prostate carcinoma cell line PC-3
- PROCEDURE_DETAILS: Anti-proliferative assay (MTT)
- Assay type: cell-based
- RECORDED_CONDITIONS: PC3, MTT, 24 h
Residues, ends and D or L forms follow the SMILES beside them.
Reported pIC50 is given for each of the following compounds.
Lab note — pIC50 values are minus log10 of concentrations in M.

[
  {
    "COMPOUND": "CC[C@H](C)[C@H](NC(=O)[C@H](CC(C)C)NC(=O)[C@@H]1CCCN1C(=O)[C@H](CC(C)C)NC(=O)[C@@H](N)Cc1ccccc1)C(=O)N[C@@H](CC(C)C)C(=O)N[C@@H](CCCNC(=N)N)C(=O)N[C@@H](CCCCN)C(=O)N[C@@H](CCCNC(=N)N)C(=O)N[C@H](C(=O)N[C@H](C(=O)N[C@@H](C)C(=O)N[C@@H](CC(C)C)C(N)=O)[C@@H](C)O)C(C)C [Crabrolin-9R, FLPLILRKRVTAL-NH2] (H-FLPLILRKRVTAL-NH2)",
    "pIC50": 3.45
  },
  {
    "COMPOUND": "CC[C@H](C)[C@H](NC(=O)[C@H](CCCCN)NC(=O)[C@@H]1CCCN1C(=O)[C@H](CC(C)C)NC(=O)[C@@H](N)Cc1ccccc1)C(=O)N[C@@H](CC(C)C)C(=O)N[C@@H](CCCNC(=N)N)C(=O)N[C@@H](CCCCN)C(=O)N[C@H](C(=O)N[C@H](C(=O)N[C@H](C(=O)N[C@@H](C)C(=O)N[C@@H](CC(C)C)C(N)=O)[C@@H](C)O)C(C)C)[C@@H](C)CC [Crabrolin-4K, FLPKILRKIVTAL-NH2] (H-FLPKILRKIVTAL-NH2)",
    "pIC50": 4.69
  },
  {
    "COMPOUND": "CC[C@H](C)[C@H](NC(=O)[C@H](CCCNC(=N)N)NC(=O)[C@H](CCCNC(=N)N)NC(=O)[C@H](CC(C)C)NC(=O)[C@@H](N)CCCNC(=N)N)C(=O)N[C@@H](CC(C)C)C(=O)N[C@@H](CCCNC(=N)N)C(=O)N[C@@H](CCCCN)C(=O)N[C@H](C(=O)N[C@H](C(=O)N[C@@H](CCCNC(=N)N)C(=O)N[C@@H](CCCNC(=N)N)C(=O)N[C@@H](CC(C)C)C(N)=O)C(C)C)[C@@H](C)CC [Crabrolin-PR, RLRRILRKIVRRL-NH2] (H-RLRRILRKIVRRL-NH2)",
    "pIC50": 4.65
  },
  {
    "COMPOUND": "CC[C@H](C)[C@H](NC(=O)[C@H](CCCNC(=N)N)NC(=O)[C@@H]1CCCN1C(=O)[C@H](CC(C)C)NC(=O)[C@@H](N)Cc1ccccc1)C(=O)N[C@@H](CC(C)C)C(=O)N[C@@H](CCCNC(=N)N)C(=O)N[C@@H](CCCCN)C(=O)N[C@H](C(=O)N[C@H](C(=O)N[C@H](C(=O)N[C@@H](C)C(=O)N[C@@H](CC(C)C)C(N)=O)[C@@H](C)O)C(C)C)[C@@H](C)CC [Crabrolin-4R, FLPRILRKIVTAL-NH2] (H-FLPRILRKIVTAL-NH2)",
    "pIC50": 4.75
  }
]

compound CC[C@H](C)[C@H](NC(=O)[C@H](CCCNC(=N)N)NC(=O)[C@@H]1CCCN1C(=O)[C@H](CC(C)C)NC(=O)[C@@H](N)CCCNC(=N)N)C(=O)N[C@@H](CC(C)C)C(=O)N[C@@H](CCCNC(=N)N)C(=O)N[C@@H](CCCCN)C(=O)N[C@H](C(=O)N[C@H](C(=O)N[C@@H](CCCNC(=N)N)C(=O)N[C@@H](CCCNC(=N)N)C(=O)N[C@@H](CC(C)C)C(N)=O)C(C)C)[C@@H](C)CC [Crabrolin-AR, RLPRILRKIVRRL-NH2] (H-RLPRILRKIVRRL-NH2) , pIC50 observed: 4.54
